The measurements presented in this section are drawn from patent US20260027243A1.

- Target: Aβ42 fibrils (Homo sapiens, UniProt P05067)
- Construct: commercial Aβ42 monomer powder (from GL biochem); purchased GL biochem
- Test Description: Fluorescence saturation binding assay with Aβ42 fibrils
- Condition Set: read-out: Kd value to Aβ42 fibrils
Measurement Kind: Kd

Lookup: Fill in the recorded Kd for this compound, with Aβ42 fibrils (Homo sapiens, UniProt P05067) as test system: N#CC(C#N)=C1C=C(/C=C/C=C/c2ccc(O)cc2)Oc2ccccc21
Found: 80 nM

* * *

The entries below come with measured pKd values attached.
- Target: Aβ42 oligomers (Homo sapiens, UniProt P05067)
- Construct: commercial Aβ42 monomer powder (from GL biochem); purchased GL biochem
- Sequence (P05067 672-713 limits assumed): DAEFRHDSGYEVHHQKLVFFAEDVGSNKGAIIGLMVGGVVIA
- Test Description: Fluorescence saturation binding assay with Aβ42 oligomers
- Condition Set: Table 1, amphiphilic compounds; read-out: Kd, Oligomers
- Protocol: Aβ42 oligomers: The 0.5 mg monomeric films were dissolved in 1.1 mL PBS buffer (with final DMSO concentration less than 1%) and incubated at 4° C. overnight. […] Aβ42 oligomers concentration was checked by measuring the absorbance of the supernatant at 280 nm. In Vitro Saturation Binding Studies with Aβ42 Fibrils and Aβ42 Oligomers. […] Nonspecific binding was determined without compounds. […] All fluorescence data were obtained on a SpectraMax M2e plate reader (Molecular Devices). […]
Scale: pKd equals -log10([C]), with [C] in mol/L.

Examples from the recorded data:
- CN1CCN(C)CCN(Cc2cc(/C=C/c3ccc(-c4ccc(N(C)C)cc4)s3)cc(CN3CCN(C)CCN(C)CC3)c2O)CC1: 5.68
- COc1cc(OC)cc(-c2ccc(/C=C/c3cc(CN4CCN(C)CCN(C)CC4)c(O)c(CN4CCN(C)CCN(C)CC4)c3)cc2)c1: 5.99
- CN1CCN(C)CCN(Cc2cc(/C=C/c3ccc(-c4ccc(N(C)C)cc4)s3)ccc2O)CC1: 6.34

Could you now consider this next compound?
Lookup: Fill in the recorded pKd for this compound, with Aβ42 oligomers (Homo sapiens, UniProt P05067) as test system: CN1CCN(C)CCN(Cc2cc(/C=C/c3ccc(-c4ccc(C=O)cc4)s3)cc(CN3CCN(C)CCN(C)CC3)c2O)CC1
Found: 5.34
